# Assay system: Cathepsin V (Homo sapiens)
# Construct: made in house; host or cells: Pichia pastoris
# Sequence (O60911 114-334): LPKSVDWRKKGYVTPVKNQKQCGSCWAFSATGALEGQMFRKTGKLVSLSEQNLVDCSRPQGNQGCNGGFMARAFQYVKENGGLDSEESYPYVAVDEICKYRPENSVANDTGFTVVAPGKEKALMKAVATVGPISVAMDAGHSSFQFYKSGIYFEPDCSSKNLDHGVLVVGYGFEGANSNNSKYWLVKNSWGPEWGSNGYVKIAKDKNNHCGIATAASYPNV
# Assay method text: Determination of relative inhibition, substrate Z-Phe-Arg-AMC
# Assay type: biochemical
# Settings: inhibitor 50 μM; substrate 2 μM; mean ± SD (n = 2); read-out: Cathepsin V Ri (%) relative inhibition
Value kind: inhibition at 50 µM (%)

O=C(c1cc(Br)ccc1OCc1ccccc1)C1OC1c1cc2ccccc2o1 (stereo not drawn) [Compound 26] = 6.3
O=C(NCC(O)CN1CCOCC1)c1cc2cc(Br)ccc2[nH]1 (stereo not drawn) [Compound 35] = 16.6
CCOC(=O)N1CCC(NC(=O)NCc2ccc(OC)cc2)CC1 [Compound 33] = -1.6

[1] COCCN1CCC(CNC(=O)NCc2ccc(OC)cc2)CC1 [Compound 43]
[2] O=c1cc(-c2ccccc2)c2cc(Cl)c(OCC3CO3)cc2o1 (stereo not drawn) [Compound 23]
Exercise: Which of the two items, 1 and 2 , has the greater recorded inhibition at 50 µM? // output: label of the selected item
Solution: 1

====

# Assay system: human recombinant cathepsin L (Homo sapiens)
# Construct: made in house; host or cells: Escherichia coli
# Assay method text: Determination of relative inhibition, substrate Z-Phe-Arg-AMC
# Format: biochemical
# Settings: inhibitor 50 μM; substrate 2 μM; mean ± SD (n = 2); read-out: Cathepsin L Ri (%) relative inhibition
Value kind: inhibition at 50 µM (%)

Look over these answered cases.
O=C(NCc1ccc(F)cc1)NCC1CCN(C(=O)Oc2ccccc2)CC1 = 4.2
O=C(c1cc(Br)ccc1OCc1ccccc1)C1OC1c1cc2ccccc2o1 (stereo not drawn) = 10.6
COc1ccc(-c2cn3c(CCC(=O)Nc4nc5ccccc5s4)csc3n2)cc1 = 17.5

[1] O=C(NC[C@H]1CCCN1c1ccccc1)c1cccnc1
[2] Cc1nc(C2OC2C(=O)c2ccccc2OCc2ccccc2)cs1 (stereo not drawn)
[3] CNC(=O)C1(COC)CCCN1C(=O)CN1CCOCC1=O (stereo not drawn)
Exercise: Highest inhibition at 50 µM first, then in falling order down to the smallest. // respond by listing labels in the order requested
Solution: 1, 2, 3

====

Reported values: pKi for Cathepsin V (Homo sapiens, UniProt O60911), one per item.
pKi: −log10 of the molar value.
Value kind: pKi

O=C(NCc1ccc(F)cc1)NCC1CCN(C(=O)Oc2ccccc2)CC1 = 3.21
O=C(NCc1cccc2ccccc12)NCC1CCN(C(=O)Oc2ccccc2)CC1 = 4.05
COc1ccc(NC(C)=O)cc1NC(=O)c1n[nH]c2ccccc12 = 3.43
O=C(NCC1CCN(C(=O)Oc2ccccc2)CC1)NC(c1ccccc1)c1ccccc1 = 3.81
Cc1cc(OCc2ccccc2)c(C(=O)C2OC2c2csc(-c3ccccc3)n2)cc1C (centres unmarked) = 3.52

====

# Assay system: human recombinant cathepsin L (Homo sapiens, UniProt P07711)
# Construct: made in house; host or cells: Escherichia coli
# Sequence (P07711 114-333): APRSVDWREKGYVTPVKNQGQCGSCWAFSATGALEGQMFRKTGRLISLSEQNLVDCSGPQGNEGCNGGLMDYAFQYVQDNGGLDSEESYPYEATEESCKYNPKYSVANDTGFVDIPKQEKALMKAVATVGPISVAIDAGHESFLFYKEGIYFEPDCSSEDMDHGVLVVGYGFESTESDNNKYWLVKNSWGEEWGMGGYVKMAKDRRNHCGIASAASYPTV
# Assay method text: Determination of Ki values and mode of inhibition
# Type: biochemical
# Settings: mean ± SD (n = 2)
Marks after values point to notes of the source that are not given here.
Value kind: Cathepsin L Ki′ (µM)

Cc1nc(C2OC2C(=O)c2ccccc2OCc2ccccc2)cs1 (centres unmarked) = 725.7 ± 142.3^e µM
O=C(NCc1cccc2ccccc12)NCC1CCN(C(=O)Oc2ccccc2)CC1 = n.i^f
O=C(Nc1nc2c(s1)CN(Cc1ccccc1)CC2)c1cccc2ccccc12 = 11.2 ± 0.1^e µM
O=C(NCC1CCN(C(=O)Oc2ccccc2)CC1)NC(c1ccccc1)c1ccccc1 = 319.2 ± 28.6^e µM

Hey, just so you know, these numbers are from paper PMC9459403.
